# target_under_test: Kv7.2/7.3 (Homo sapiens, UniProt O43525+O43526)
# test_method_notes: Kv7.2/7.3 Activation Assay, QPatch single concentration screen
# Type: cell-based
# Set-up: host or cells: HEK cells, tetracycline-inducible expression
# particulars: Kv7.2/Kv7.3 co-expressing HEK cells, compound concentration 3 μM, steady-state current at end of 2 s pulse to −30 mV
measurement_name: Kv7.2/7.3 Activity: increase over baseline in current

compound | target_under_test | observed_measurement
CC(C)(C)CC(=O)Nc1nc2ccc(C#N)cc2n1C(C)(C)C(F)(F)F [Example 401] | Kv7.2/7.3 (Homo sapiens, UniProt O43525+O43526) | ++ (3-3.9 (++))
CC(C)(C)CC(=O)Nc1nc2ccc(OCC(F)(F)F)c(F)c2n1C1CCC1 [Example 334] | Kv7.2/7.3 (Homo sapiens, UniProt O43525+O43526) | ++ (3-3.9 (++))
CC(O)(CC(=O)Nc1nc2ccc(OC(F)F)cc2n1C1CCC1)c1ccccc1 (single isomer, unassigned) [Example 402] | Kv7.2/7.3 (Homo sapiens, UniProt O43525+O43526) | ++ (3-3.9 (++))
CC1(n2c(NC(=O)CC(C)(C)C(F)(F)F)nc3cc(F)cc(C#N)c32)CCC1 [Example 340] | Kv7.2/7.3 (Homo sapiens, UniProt O43525+O43526) | + (1.2-2.9 (+))
CC(O)(CC(=O)Nc1nc2ccc(C#N)cc2n1CC(F)(F)F)c1ccccc1F (single isomer, unassigned) [Example 483] | Kv7.2/7.3 (Homo sapiens, UniProt O43525+O43526) | ++ (3-3.9 (++))
CC(O)(CC(=O)Nc1nc2c(F)cc(C#N)cc2n1C(C)(C)C)c1cccc(F)c1 (single isomer, unassigned) [Example 339] | Kv7.2/7.3 (Homo sapiens, UniProt O43525+O43526) | O
CC(C)(O)c1ccc2nc(NC(=O)CC3CC(F)(F)C3(F)F)n(C3CCC3)c2c1 (single isomer, unassigned) [Example 446] | Kv7.2/7.3 (Homo sapiens, UniProt O43525+O43526) | ++ (3-3.9 (++))
C[C@H](C(=O)Nc1nc2ccc(C(C)(C)O)cc2n1C1CC(F)(F)C1)C(C)(C)C [Example 365] | Kv7.2/7.3 (Homo sapiens, UniProt O43525+O43526) | + (1.2-2.9 (+))
CC(C)(CC(=O)Nc1nc2c(F)cc(C#N)cc2n1C12CC(C1)C2)C(F)(F)F [Example 431] | Kv7.2/7.3 (Homo sapiens, UniProt O43525+O43526) | ++ (3-3.9 (++))
CC(C)(C)CC(=O)Nc1nc2ccc(F)cc2n1C1CCC1 [Example 417] | Kv7.2/7.3 (Homo sapiens, UniProt O43525+O43526) | ++ (3-3.9 (++))

Kv7.2/7.3 Activity: increase over baseline in current lookup needed for CC(C)(O)c1ccc2nc(NC(=O)CC(C)(O)c3ccccc3)n(C34CC(C3)C4)c2c1 (single isomer, unassigned) [Example 371] , thanks.
O

Entry to check: C[C@@H](CC(=O)Nc1nc2ccc(C(C)(C)O)cc2n1C1CCC1)c1ccccc1 [Example 369]
O

Entry to check: CC(C)(C)CC(=O)Nc1nc2ccc(C(C)(C)O)cc2n1C1CC(F)(F)C1 [Example 332]
+ (1.2-2.9 (+))

Entry to check: CC(O)(CC(=O)Nc1nc2cc(Cl)c(C#N)cc2n1C1CCC1)c1ccccc1 (single isomer, unassigned) [Example 347]
+ (1.2-2.9 (+))

Entry to check: CC(C)(C)n1c(NC(=O)CC2CC(F)(F)C2(F)F)nc2c(F)cc(C#N)cc21 (single isomer, unassigned) [Example 416]
++ (3-3.9 (++))

Entry to check: CC(C)(C)CC(=O)Nc1nc2cccc(C#N)c2n1C1(C)CCC1 [Example 473]
++ (3-3.9 (++))

Entry to check: C[C@H](C(=O)Nc1nc2ccc(C(C)(C)O)cc2n1C1(C)CCC1)C(C)(C)C [Example 383]
++ (3-3.9 (++))

Entry to check: CC(O)(CC(=O)Nc1nc2ccc(C#N)cc2n1CC1CC1)c1ccccc1 (single isomer, unassigned) [Example 344]
+ (1.2-2.9 (+))

Entry to check: CC(O)(CC(=O)Nc1nc2ccc(C#N)cc2n1C1(C)CCC1)c1ccc(F)cc1F (single isomer, unassigned) [Example 460]
++ (3-3.9 (++))

Entry to check: CC(C)(C)CC(=O)Nc1nc2c(OC(F)F)cc(C#N)cc2n1C1(C)CCC1 [Example 381]
++ (3-3.9 (++))

Entry to check: CC(O)(CC(=O)Nc1nc2ccc(C#N)cc2n1CC1CC1)c1ccccc1 (single isomer, unassigned) [Example 428]
++ (3-3.9 (++))

Entry to check: CC(C)(C)CC(=O)Nc1nc2ccc(C#N)cc2n1C1(C)CCC1 [Example 337]
++ (3-3.9 (++))

Entry to check: CC(O)(CC(=O)Nc1nc2ccc(OC(F)F)cc2n1C1CCC1)c1ccccc1 (single isomer, unassigned) [Example 422]
+ (1.2-2.9 (+))

Entry to check: CC(O)(CC(=O)Nc1nc2ccc(C#N)cc2n1C1(C)CCC1)c1ccc(F)cc1F (single isomer, unassigned) [Example 430]
++ (3-3.9 (++))

Entry to check: CC(C)(C)CC(=O)Nc1nc2cc(C(C)(C)O)c(C(F)(F)F)cc2n1C1CCC1 [Example 450]
+ (1.2-2.9 (+))

Entry to check: CC(C)(O)CC(=O)Nc1nc2cccc(OC(F)(F)F)c2n1C1CCC1 [Example 380]
+ (1.2-2.9 (+))

Entry to check: CC(C)(CC(=O)Nc1nc2ccc(C#N)cc2n1C(C)(C)C(F)(F)F)C(F)(F)F [Example 484]
+ (1.2-2.9 (+))

###

# target_under_test: Kv7.2/7.3 (Homo sapiens, UniProt O43525+O43526)
# test_method_notes: Kv7.2/7.3 Thallium Flux Assay
# Assay type: cell-based
# Parameters: host or cells: HEK cells, tetracycline-inducible expression
# particulars: read-out: Kv7.2/7.3 Activity: EC50 of Kv7.2/Kv7.3 activation
pEC50: −log10 of the molar value.
measurement_name: pEC50

compound | pEC50
[2H]C([2H])([2H])C(CC(=O)Nc1nc2c(F)cc(C#N)cc2n1C1(C)CCC1)(C([2H])([2H])[2H])C([2H])([2H])[2H] | > 6.00

pEC50 lookup needed for CC(C(=O)Nc1nc2ccc(Cl)c(F)c2n1C1(C)CCC1)C1(C(F)(F)F)CC1 (single isomer, unassigned) , thanks.
> 6.00

Entry to check: `CC1(n2c(NC(=O)CC3(C(F)(F)F)CC3)nc3c(F)cc(C#N)cc32)CCC1`
> 6.00

Entry to check: `CC(C)(C)CC(=O)Nc1nc2cccc(OC(F)(F)F)c2n1C1CCC1`
> 6.00

Entry to check: `COc1cc(C#N)cc2c1nc(NC(=O)CC(C)(C)C(F)(F)F)n2C1(C)CCC1`
> 6.00

Entry to check: COc1cc(C#N)cc2c1nc(NC(=O)CC1CC(F)(F)C1(F)F)n2C1(C)CCC1 (single isomer, unassigned)
> 6.00

Entry to check: `CC1(n2c(NC(=O)CC(C)(C)C(F)(F)F)nc3c(F)cc(C#N)cc32)CCC1`
> 6.00

Entry to check: `CC1(n2c(NC(=O)CC(C)(C)C(F)(F)F)nc3ccc(Cl)c(F)c32)CCC1`
> 6.00

Entry to check: CC1(n2c(NC(=O)CC3CC(F)(F)C3(F)F)nc3cc(F)ccc32)CCC1 (single isomer, unassigned) [Example 525]
> 6.00

Entry to check: CC1(n2c(NC(=O)CC3CC(F)(F)C3(F)F)nc3c(F)cc(C#N)c(F)c32)CCC1 (single isomer, unassigned) [Example 504]
> 6.00

Entry to check: `CC(C)(C)CC(=O)Nc1nc2ccc(C3(O)CCC3)c(OC(F)(F)F)c2n1C1CCC1`
> 6.00

Entry to check: `CC(C)(CC(=O)Nc1nc2cc(F)c(F)cc2n1C1(C)CCC1)C(F)F`
> 6.00

Entry to check: `CC(C)(C)CC(=O)Nc1nc2ccc(C3(O)CCC3)c(C(F)(F)F)c2n1C1CCC1`
> 6.00

Entry to check: `C=Cc1c(F)ccc2nc(NC(=O)CC(C)(C)C)n(C3CCC3)c12`
> 6.00

Entry to check: CC1(n2c(NC(=O)CC3CC(F)(F)C3(F)F)nc3cc(F)cc(F)c32)CCC1 (single isomer, unassigned)
> 6.00

###

Below, each of the compounds is paired with its reported pEC50 value.
# target_under_test: Kv7.2/7.3 (Homo sapiens, UniProt O43525+O43526)
# test_method_notes: Kv7.2/7.3 Thallium Flux Assay
# Type: cell-based
# Design: host or cells: HEK cells, tetracycline-inducible expression
# particulars: read-out: Kv7.2/7.3 Activity: EC50 of Kv7.2/Kv7.3 activation
pEC50: −log10 of the molar value.

Worked examples, 3 compounds total:
compound | pEC50
CC(C)(CC(=O)Nc1nc2ccc(C#N)cc2n1C1CCC1)c1ccccn1 | 5.52 to 6.00
CC(C(=O)Nc1nc2c(F)cc(C#N)cc2n1C1(C)CCC1)C1(C(F)(F)F)CC1 (single isomer, unassigned) [Example 494] | > 6.00
CC(C(=O)Nc1nc2c(F)cc(C#N)cc2n1C1(C)CCC1)C1(C(F)(F)F)CC1 (single isomer, unassigned) [Example 503] | > 6.00

pEC50 lookup needed for CC1(n2c(NC(=O)CC3CC(F)(F)C3(F)F)nc3ccc(F)c(F)c32)CCC1 (single isomer, unassigned) , thanks.
> 6.00
